Quick list: Kd per entry.
tested.system: T1, hIL10RalphaFc (human, UniProt Q13651)
T1 chain: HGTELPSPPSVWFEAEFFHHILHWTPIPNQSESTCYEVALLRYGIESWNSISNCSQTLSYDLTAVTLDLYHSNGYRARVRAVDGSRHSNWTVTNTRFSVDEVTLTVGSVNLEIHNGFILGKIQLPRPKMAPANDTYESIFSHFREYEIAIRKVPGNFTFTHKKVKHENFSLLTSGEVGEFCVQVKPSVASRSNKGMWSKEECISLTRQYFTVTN
assay.text: SPR
readout.label: Kd (nM)

{"binder": "h_SS0053_AA (hIL10 T100L fused) (protein) SPGQGTQSENSCTHFPGNLPNMLRDLRDAFSRVKTFFQMKDQLDNLLLKESLLEDFKGYLGCQALSEMIQFYLEEVMPQAENQDPDIKAHVNSLGENLKLLRLRLRRCHRFLPCENKSKAVEQVKNAFNKLQEKGIYKAMSEFDIFINYIEAYMTMKIRNSPGQGTQSENSCTHFPGNLPNMLRDLRDAFSRVKTFFQMKDQLDNLLLKESLLEDFKGYLGCQALSEMIQFYLEEVMPQAENQDPDIKAHVNSLGENLKLLRLRLRRCHRFLPCENKSKAVEQVKNAFNKLQEKGIYKAMSEFDIFINYIEAYMTMKIRNGGSHHHHHHHH", "readout.label": "Kd", "measurement": 0.07}
{"binder": "hIL10 T100L (protein) SPGQGTQSENSCTHFPGNLPNMLRDLRDAFSRVKTFFQMKDQLDNLLLKESLLEDFKGYLGCQALSEMIQFYLEEVMPQAENQDPDIKAHVNSLGENLKLLRLRLRRCHRFLPCENKSKAVEQVKNAFNKLQEKGIYKAMSEFDIFINYIEAYMTMKIRN", "readout.label": "Kd", "measurement": 0.26}
{"binder": "hIL10 WT (protein) SPGQGTQSENSCTHFPGNLPNMLRDLRDAFSRVKTFFQMKDQLDNLLLKESLLEDFKGYLGCQALSEMIQFYLEEVMPQAENQDPDIKAHVNSLGENLKTLRLRLRRCHRFLPCENKSKAVEQVKNAFNKLQEKGIYKAMSEFDIFINYIEAYMTMKIRN", "readout.label": "Kd", "measurement": 0.06}
{"binder": "h_SS0052_AA (hIL10 WT fused) (protein) SPGQGTQSENSCTHFPGNLPNMLRDLRDAFSRVKTFFQMKDQLDNLLLKESLLEDFKGYLGCQALSEMIQFYLEEVMPQAENQDPDIKAHVNSLGENLKTLRLRLRRCHRFLPCENKSKAVEQVKNAFNKLQEKGIYKAMSEFDIFINYIEAYMTMKIRNSPGQGTQSENSCTHFPGNLPNMLRDLRDAFSRVKTFFQMKDQLDNLLLKESLLEDFKGYLGCQALSEMIQFYLEEVMPQAENQDPDIKAHVNSLGENLKTLRLRLRRCHRFLPCENKSKAVEQVKNAFNKLQEKGIYKAMSEFDIFINYIEAYMTMKIRN", "readout.label": "Kd", "measurement": 0.11}
